Reference source for all entries: patent US20260041620A1

# Target under test: HDAC 11 (Homo sapiens, UniProt Q96DB2)
# Construct: purchased BPS Biosciences 50687
# Test method notes: HDAC 11 fluorogenic assay kit
# Assay type: biochemical
# Condition context: 200 ug/ml
Just a reminder that ties go to NO: only HDAC 11 activity, % of water-treated controls strictly below 90% counts as YES.

Input CCCC(=O)NCCCCC(NC(=O)CCC)C(=O)[O-].CCCC(=O)NCCCCC(NC(=O)CCC)C(=O)[O-].[Ca+2] (centres unmarked) [Ca di-(di-n-butyryl lysinate), calcium di-(di-n-butyryl lysinate)] ; condition: HDAC 11 activity, % of water-treated controls strictly below 90%. Does it hold?
NO

Is HDAC 11 activity, % of water-treated controls strictly under 90% for the entry CCCC(=O)N[C@@H](CC(C)C)C(=O)[O-].CCCC(=O)N[C@@H](CC(C)C)C(=O)[O-].[Zn+2] [Zn di-(n-butyryl leucinate), Zinc di-(n-butyryl leucinate)] ?
YES

Please state whether HDAC 11 activity, % of water-treated controls is below 90% for CCCC(=O)NCCCC[C@H](NC(=O)CCC)C(=O)[O-].CCCC(=O)NCCCC[C@H](NC(=O)CCC)C(=O)[O-].[Zn+2] [Zn di-(di-n-butyryl lysinate), Zinc di-(di-n-butyryl lysinate)]
YES

Lab note: HDAC 11 activity, % of water-treated controls threshold 90%. Does this molecule come in strictly under it? CCCC(=O)[O-].[Na+] [Sodium butyrate, reference compound]
YES

###

# Target under test: HDAC 11 (Homo sapiens)
# Construct: purchased BPS Biosciences 50687
# Sequence (Q96DB2 1-347): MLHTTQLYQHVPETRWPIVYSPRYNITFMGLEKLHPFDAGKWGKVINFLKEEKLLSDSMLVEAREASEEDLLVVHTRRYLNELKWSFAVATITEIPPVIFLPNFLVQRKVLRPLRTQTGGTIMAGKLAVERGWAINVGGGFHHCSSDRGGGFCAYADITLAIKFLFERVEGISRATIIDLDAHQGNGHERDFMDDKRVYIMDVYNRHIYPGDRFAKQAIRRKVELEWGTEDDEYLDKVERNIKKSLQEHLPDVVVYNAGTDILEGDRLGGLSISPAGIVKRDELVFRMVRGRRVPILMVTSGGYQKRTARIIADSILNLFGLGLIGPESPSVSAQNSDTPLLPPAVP
# Test method notes: HDAC 11 fluorogenic assay kit
# Type: biochemical
# Condition context: 100 ug/ml
Measurement label: HDAC 11 activity, % of water-treated controls (%)
Number in %, nothing else.

Supply reported HDAC 11 activity, % of water-treated controls belonging to this compound: CCCC(=O)N[C@@H](CC(C)C)C(=O)[O-].CCCC(=O)N[C@@H](CC(C)C)C(=O)[O-].[Zn+2] [Zn di-(n-butyryl leucinate), Zinc di-(n-butyryl leucinate)]
71

Name the recorded HDAC 11 activity, % of water-treated controls of the item CCCC(=O)NCCCC[C@H](NC(=O)CCC)C(=O)[O-].CCCC(=O)NCCCC[C@H](NC(=O)CCC)C(=O)[O-].[Zn+2] [Zn di-(di-n-butyryl lysinate), Zinc di-(di-n-butyryl lysinate)] in your answer.
22

State, in one line, measured HDAC 11 activity, % of water-treated controls of CCCC(=O)NCCCCC(NC(=O)CCC)C(=O)[O-].CCCC(=O)NCCCCC(NC(=O)CCC)C(=O)[O-].[Ca+2] (centres unmarked) [Ca di-(di-n-butyryl lysinate), calcium di-(di-n-butyryl lysinate)]
101

Using the record for CCCC(=O)[O-].[Na+] [Sodium butyrate, reference compound] , state its measured HDAC 11 activity, % of water-treated controls.
87

Output HDAC 11 activity, % of water-treated controls of CCCC(=O)NCCCC[C@H](NC(=O)CCC)C(=O)[O-].CCCC(=O)NCCCC[C@H](NC(=O)CCC)C(=O)[O-].[Mg+2] [Mg di-(di-n-butyryl lysinate), magnesium di-(di-n-butyryl lysinate)]
91
